Origin of measurements: patent US20240016952A1

Target: T1, cynomolgus monkey transferrin receptor 1 (cTfR1) (cynomolgus monkey (Macaca fascicularis), UniProt Q5RDH6 89-760 (Pongo abelii entry), limits assumed)
T1 construct: Recombinant cynomolgus TfR1; also called cyTfR1; cyno TfR1
T1 chain: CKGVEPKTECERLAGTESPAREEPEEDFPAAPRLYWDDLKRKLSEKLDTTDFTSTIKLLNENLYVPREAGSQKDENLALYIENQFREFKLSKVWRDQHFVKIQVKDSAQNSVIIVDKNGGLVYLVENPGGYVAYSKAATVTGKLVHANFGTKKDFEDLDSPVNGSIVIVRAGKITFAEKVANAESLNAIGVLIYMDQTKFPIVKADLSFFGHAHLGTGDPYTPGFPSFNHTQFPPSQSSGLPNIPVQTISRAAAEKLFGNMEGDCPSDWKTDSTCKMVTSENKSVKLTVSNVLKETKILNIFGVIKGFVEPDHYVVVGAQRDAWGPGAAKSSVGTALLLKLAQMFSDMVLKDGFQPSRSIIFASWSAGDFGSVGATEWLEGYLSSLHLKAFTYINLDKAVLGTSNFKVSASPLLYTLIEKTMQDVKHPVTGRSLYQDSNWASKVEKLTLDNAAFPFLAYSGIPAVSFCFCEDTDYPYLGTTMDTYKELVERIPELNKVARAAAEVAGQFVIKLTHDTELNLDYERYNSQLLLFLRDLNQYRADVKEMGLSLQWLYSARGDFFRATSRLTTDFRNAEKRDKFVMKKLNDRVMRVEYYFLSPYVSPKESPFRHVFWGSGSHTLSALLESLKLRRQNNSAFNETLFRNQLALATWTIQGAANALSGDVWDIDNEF
Experiment: ELISA, cyno TfR1, Fab after 9 days at 40 C
Attribute: Binding affinity cyno TfR1 d 9
// note: answer is a bare numeric in nM

Field: example entries. Status: answers known.
>>> test_value("humanized anti-TfR Fab 3M12 VH3/Vk2 (Fab, V domains shown) VH: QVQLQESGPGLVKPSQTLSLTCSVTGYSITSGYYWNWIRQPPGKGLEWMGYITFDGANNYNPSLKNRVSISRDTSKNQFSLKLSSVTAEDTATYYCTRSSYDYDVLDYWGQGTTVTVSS VL: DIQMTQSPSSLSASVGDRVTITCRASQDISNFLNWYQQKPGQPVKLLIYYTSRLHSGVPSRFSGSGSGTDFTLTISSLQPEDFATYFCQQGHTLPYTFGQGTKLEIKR")
19.5
>>> test_value("humanized anti-TfR Fab 5H12 VH5 (C33Y)/Vk4 (Fab, V domains shown, also called 5H12 (VH4-C33Y/Vk4)) VH: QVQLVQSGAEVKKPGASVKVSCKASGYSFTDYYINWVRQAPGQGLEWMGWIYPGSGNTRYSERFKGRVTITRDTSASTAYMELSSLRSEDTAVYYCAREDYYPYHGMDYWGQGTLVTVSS VL: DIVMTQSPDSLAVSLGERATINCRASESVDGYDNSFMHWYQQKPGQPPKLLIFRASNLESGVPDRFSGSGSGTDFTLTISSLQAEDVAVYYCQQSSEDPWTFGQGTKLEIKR")
0.26
>>> test_value("humanized anti-TfR Fab 3A4 VH3 (N54S)/Vk4 (Fab, V domains shown) VH: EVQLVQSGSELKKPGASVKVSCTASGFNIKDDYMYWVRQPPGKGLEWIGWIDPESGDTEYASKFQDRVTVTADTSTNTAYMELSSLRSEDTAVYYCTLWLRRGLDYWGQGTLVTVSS VL: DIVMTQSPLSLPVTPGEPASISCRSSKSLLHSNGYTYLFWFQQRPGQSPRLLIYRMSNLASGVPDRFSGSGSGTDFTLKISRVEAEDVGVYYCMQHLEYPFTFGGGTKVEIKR")
248

Data request, read-out Binding affinity cyno TfR1 d 9, for humanized anti-TfR Fab 3M12 VH3/Vk3 (Fab, V domains shown) VH: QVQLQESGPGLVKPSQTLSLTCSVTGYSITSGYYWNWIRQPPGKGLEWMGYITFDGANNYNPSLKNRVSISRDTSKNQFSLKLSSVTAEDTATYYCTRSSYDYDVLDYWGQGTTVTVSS VL: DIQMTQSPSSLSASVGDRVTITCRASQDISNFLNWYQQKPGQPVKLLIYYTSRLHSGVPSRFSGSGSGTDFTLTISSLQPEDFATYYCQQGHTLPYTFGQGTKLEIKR
15.6
